target: EGFR ASV (Homo sapiens, UniProt P00533, INS769ASV); construct: expressed in transfected cells; host or cells: Ba/F3 cells; assay: Ba/F3 cell viability (MTS), EGFR ASV; assay type: cell-based; conditions: Table 4; Ba/F3 cells, 72 hours; read-out: EGFR Ba/F3 ASV
Sequence (P00533 with tags, fused parts or gaps INS769ASV): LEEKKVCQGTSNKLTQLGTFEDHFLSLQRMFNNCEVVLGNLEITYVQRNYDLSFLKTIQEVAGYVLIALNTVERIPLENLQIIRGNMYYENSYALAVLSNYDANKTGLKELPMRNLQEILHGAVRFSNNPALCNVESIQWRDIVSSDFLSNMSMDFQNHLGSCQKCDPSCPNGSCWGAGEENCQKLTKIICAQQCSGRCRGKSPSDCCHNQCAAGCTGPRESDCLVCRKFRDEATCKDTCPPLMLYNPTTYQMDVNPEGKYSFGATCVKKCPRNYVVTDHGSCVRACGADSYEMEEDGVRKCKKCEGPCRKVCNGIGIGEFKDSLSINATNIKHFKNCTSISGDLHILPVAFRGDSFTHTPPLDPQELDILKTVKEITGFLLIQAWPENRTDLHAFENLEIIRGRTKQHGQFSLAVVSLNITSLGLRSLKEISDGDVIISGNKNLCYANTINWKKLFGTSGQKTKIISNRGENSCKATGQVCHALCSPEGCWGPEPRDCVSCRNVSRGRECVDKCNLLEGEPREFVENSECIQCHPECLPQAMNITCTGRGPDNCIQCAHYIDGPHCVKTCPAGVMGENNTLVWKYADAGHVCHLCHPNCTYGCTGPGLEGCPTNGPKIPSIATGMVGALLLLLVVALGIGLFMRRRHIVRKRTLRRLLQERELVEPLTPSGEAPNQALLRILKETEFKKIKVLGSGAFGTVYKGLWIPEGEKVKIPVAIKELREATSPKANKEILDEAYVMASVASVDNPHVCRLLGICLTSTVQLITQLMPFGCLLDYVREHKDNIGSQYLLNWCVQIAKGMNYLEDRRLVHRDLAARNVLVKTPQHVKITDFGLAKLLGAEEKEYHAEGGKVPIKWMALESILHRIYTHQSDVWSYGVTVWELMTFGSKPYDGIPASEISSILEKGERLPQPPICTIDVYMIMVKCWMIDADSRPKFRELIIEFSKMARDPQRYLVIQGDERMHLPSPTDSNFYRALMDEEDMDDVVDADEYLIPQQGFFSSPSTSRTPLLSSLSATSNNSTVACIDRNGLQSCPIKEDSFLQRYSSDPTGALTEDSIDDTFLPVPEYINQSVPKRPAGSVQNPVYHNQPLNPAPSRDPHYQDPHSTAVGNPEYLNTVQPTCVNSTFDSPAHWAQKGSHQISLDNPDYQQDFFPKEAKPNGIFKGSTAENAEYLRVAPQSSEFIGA

- MOLECULAR_STRING: "C=CC(=O)Nc1cc(Nc2ncc(C#N)c(NC34CC(C3)C4)n2)c(OC)cc1N(C)CCN(C)C"
  IC50 / nM: 19.3

----------
biological target: EGFR ASV (Homo sapiens, UniProt P00533, INS769ASV); construct: expressed in transfected cells; host or cells: Ba/F3 cells; assay: Ba/F3 cell viability (MTS), EGFR ASV; type: cell-based; conditions: Table 2; Ba/F3 cells, 72 hours; read-out: Ba/F3 IC50 ASV
pIC50: −log10 of the molar value.

- MOLECULAR_STRING: "C=CC(=O)Nc1cc(Nc2ncc(C#N)c(NC34CC(C3)C4)n2)c(OC)cc1N(C)CCN(C)C"
  SYSTEM_NAME: "EGFR ASV (Homo sapiens, UniProt P00533, INS769ASV)"
  pIC50: 8.29
